Data origin: the METLIN SMRT retention time set (Domingo-Almenara et al. 2019)

Consider the following compounds; for each one, report its RP-LC retention time.
assay: gradient 5% acetonitrile 3 min, to 50% in 2 min, to 85% in 15 min, held 3 min, 100 µL/min; conditions: column: Zorbax Extend-C18 2.1 x 50 mm; eluents: water / acetonitrile, 0.1% formic acid
One number for each entry, in s.

Reference set (3 entries):
O=C(CN1CCc2[nH]c3c(F)ccc(F)c3c(=O)c2C1)Nc1ccccc1Cl ... 953
Cc1nc(-c2csc(S(=O)(=O)N3CCCC(C(=O)Nc4ccc(C)c(F)c4)C3)c2)no1 (stereo unspecified) ... 1030
CCOC(=O)c1[nH]c(C)c(CCC(=O)N2CCCC(C(=O)NCc3cc(OC)ccc3OC)C2)c1C (stereo unspecified) ... 799

Below are 7 compounds. Give each one its RP-LC retention time.
1. COc1ccc(C)cc1NC(=O)N1CCC(c2cc(N)on2)CC1
2. CC1CCC(C(=O)Nc2cc3c(cc2N2CCOCC2)n(C)c(=O)c(=O)n3C)CC1 (stereo unspecified)
3. O=C(NCc1ccccc1Cl)C(=O)NCC1(CO)CC1
4. O=C(Nc1ccc(-c2nnc3n2CCCC3)cc1)c1ccc2c(c1)OCO2
5. Cc1ccc(-c2nc(-c3cccc(-c4ccnn4C)c3)no2)s1
6. CCN1C(=O)c2cc(S(=O)(=O)Nc3ccc(C)cc3C)ccc2Oc2cccnc21
7. CCOc1ccc2nc(C(=O)NCc3cccc(Br)c3)cn2n1

OUT:
1: 720; 2: 782; 3: 670; 4: 661; 5: 1160; 6: 1080; 7: 944

IN: Which measured RP-LC retention time value corresponds to "Cc1cc2nn(CC(=O)NCc3ccccc3)c(=O)n2c(-c2cccc(F)c2)n1" ?
OUT: 627

---

assay: gradient 5% acetonitrile 3 min, to 50% in 2 min, to 85% in 15 min, held 3 min, 100 µL/min; details: column: Zorbax Extend-C18 2.1 x 50 mm; eluents: water / acetonitrile, 0.1% formic acid
Entries are sorted into classes by RP-LC retention time as follows: lower segment (below 600 s), middle segment (600 s to below 800 s), upper segment (800 s or more)

CCCN(CCC)C1CCc2cc(O)c(O)cc2C1 (centres undefined) ... middle segment
COCc1c(C(=O)N2CCCC2Cc2noc(C3CCCC3)n2)noc1C (centres undefined) ... upper segment
COc1ccc2[nH]c(C(=O)N[C@@H](C)C(=O)NCCc3c[nH]c4ccccc34)cc2c1OC ... middle segment

IN: GET /class?item= "CCOc1ccc(-n2cc(C(=O)OCc3ccccn3)c3ccccc3c2=O)cc1"
OUT: middle segment

IN: GET /class?item= "COC(=O)c1ccccc1NC(=O)CSc1cc(N2CCN(c3ccccc3F)CC2)ncn1"
OUT: upper segment

IN: GET /class?item= "Cn1c2ccccc2c2cnn(CC(=O)N3CCN(c4ccccn4)CC3)c(=O)c21"
OUT: upper segment

IN: GET /class?item= Cc1ccccc1OCC(O)CN1CCN(Cc2ccc3c(c2)OCO3)CC1 (centres undefined)
OUT: lower segment

IN: GET /class?item= "Cc1ccc(S(=O)(=O)NCCSc2ncccn2)cc1"
OUT: middle segment

IN: GET /class?item= "CCc1cccc(NC(=O)CN2C(=O)CCCc3cc(S(=O)(=O)N4CCCC4)ccc32)c1"
OUT: upper segment

IN: GET /class?item= COc1ccc(NC(=O)N2CCCN(C3CCN(CC4CC4)C3=O)CC2)cc1Cl (centres undefined)
OUT: lower segment

IN: GET /class?item= "Fc1ccc(-c2noc3ncnc(N4CCN(c5ccccn5)CC4)c23)cc1"
OUT: middle segment

---

assay: gradient 5% acetonitrile 3 min, to 50% in 2 min, to 85% in 15 min, held 3 min, 100 µL/min; conditions: column: Zorbax Extend-C18 2.1 x 50 mm; eluents: water / acetonitrile, 0.1% formic acid
Consider the following compounds; for each one, report its RP-LC retention time.
Give bare numbers, in s.

Reference set (4 entries):
Nc1ccc(CC(CC(=O)O)C(=O)O)cc1 (stereo unspecified) ... 850
Cc1nc2c(c(=O)n1CC(=O)NCc1cccs1)CCN(Cc1ccccc1)C2 ... 608
O=C(C1CCN(c2nc3ccc(-c4ccc(F)cc4)nc3s2)CC1)N1CCCC1 ... 944
CSc1nc(=O)[nH]nc1Sc1ccccc1 ... 800

Below are 5 compounds. Give each one its RP-LC retention time.
1. Cc1cc(C)cc(-n2ncc3c(N4CCN(CCO)CC4)ncnc32)c1
2. Cc1nn2c(CNS(=O)(=O)c3ccccc3Cl)c(-c3ccccc3)nc2s1
3. Cc1ccc(NC(=O)N2CCN(CCn3cnc4cccnc43)CC2)c(Cl)c1
4. O=C(Cn1c(=O)c2cc(-c3cccs3)nn2c2ncccc21)Nc1ccc(F)cc1
5. C[C@H](Cc1ccccc1)Nc1ncnc2c1ncn2[C@@H]1O[C@H](CO)[C@H](O)C1O (stereo partly specified)

OUT:
1: 649; 2: 853; 3: 584; 4: 870; 5: 696

Below are 2 compounds. Give each one its RP-LC retention time.
1. CC(C)n1c(-c2cccc(C(=O)NCCN3CCCCC3)c2)nc2cccnc21
2. Cc1ccc(NC(=O)CN2C(=O)C3CCCCN3c3ccc(S(=O)(=O)N(C)C)cc32)nc1 (stereo unspecified)

OUT:
1: 599; 2: 828

---

test: gradient 5% acetonitrile 3 min, to 50% in 2 min, to 85% in 15 min, held 3 min, 100 µL/min; conditions: column: Zorbax Extend-C18 2.1 x 50 mm; eluents: water / acetonitrile, 0.1% formic acid
value-kind: RP-LC retention time (s)
Give bare numbers, in s.

Cn1cc(S(=O)(=O)N2CCC(C(=O)N3CCc4ccccc43)CC2)cc1C(=O)N1CCCC1 ... 805
COC(=O)c1cc2n(n1)CC(C)(C(=O)NC1CCC(C)CC1)N(Cc1ccccc1)C2=O (centres undefined) ... 816
COC(=O)c1scc(-c2ccc(C)cc2)c1S(=O)(=O)N1CCC(C(N)=O)CC1 ... 798

Note: attention shifts to another entry.
IN: Which measured RP-LC retention time value corresponds to CCN1C(=O)C(C)(C(=O)NCc2ccccc2)Oc2cccnc21 (centres undefined) ?
OUT: 812

---

assay: gradient 5% acetonitrile 3 min, to 50% in 2 min, to 85% in 15 min, held 3 min, 100 µL/min; conditions: column: Zorbax Extend-C18 2.1 x 50 mm; eluents: water / acetonitrile, 0.1% formic acid
value-kind: RP-LC retention time (s)
Numbers only, in s.

COc1ccc(N2CCN(c3cc(SCC(=O)Nc4ccc(OC)c(Cl)c4)ncn3)CC2)cc1 ... 967
CCCNC(=O)C1CCN(c2ccc(SCC(=O)Nc3ccc(OC)c(Cl)c3)nn2)CC1 ... 654
Cc1nc(N)nc(Cl)c1CCC1OCCO1 ... 673
O=C(CCc1csc(NS(=O)(=O)c2ccccc2)n1)Nc1nc2ccccc2s1 ... 730
CC(=O)c1cccc(NC(=O)c2c(F)cccc2F)c1 ... 708
COCCC(=O)N1CC(c2nc(CCOC)no2)C1 ... 581
CCc1nc2cc(N3CCCC(C(=O)NCCOC)C3)cnc2nc1CC (stereo unspecified) ... 662
O=C1CCCc2cc(S(=O)(=O)N3CCCC(C(=O)N4CCN(c5ccccc5)CC4)C3)ccc2N1 (stereo unspecified) ... 788
CCN(Cc1ccccc1)S(=O)(=O)c1cc(-c2nnc(C3CCC3)o2)co1 ... 913
COc1cccc(-c2nnc(Cc3nc(-c4ccc5c(c4)OCO5)no3)o2)c1 ... 977

Below are 2 compounds. Give each one its RP-LC retention time.
1. CCNC(=O)N1CC(c2nc(-c3ccc(F)cc3)no2)C2(CCOCC2)C1 (stereo unspecified)
2. COc1cc(C2CC(=O)N(CC(=O)N3CCCCC3)c3ccccc3S2)cc(OC)c1OC (stereo unspecified)

OUT:
[751, 871]

---

assay: gradient 5% acetonitrile 3 min, to 50% in 2 min, to 85% in 15 min, held 3 min, 100 µL/min; conditions: column: Zorbax Extend-C18 2.1 x 50 mm; eluents: water / acetonitrile, 0.1% formic acid
value-kind: RP-LC retention time (s)
Answers are plain numbers, in s.

Cn1ccc2ccn(CC(=O)NCc3ccccc3Br)c(=O)c21 ... 778
O=C(C1CCC1)N1CCC2(CC1)NCCc1c2[nH]c2ccccc12 ... 628
CC(C)c1ccc(NC(=O)C2(C)CCCCC(=O)N2)cc1 (stereo unspecified) ... 786
Cc1c(Cl)cccc1NC(=O)C(=O)NCc1ccsc1 ... 943
Cc1ccc(CNC(=O)Cn2c(N(C)Cc3ccccc3)nc(C)cc2=O)cc1 ... 778

Below are 5 compounds. Give each one its RP-LC retention time.
1. CN1C(=O)c2cccnc2Sc2cc(NC(=O)c3ccncc3)ccc21
2. CN(C)CC1(O)CCC2(CCN(C(=O)c3ccoc3)CC2)CC1
3. Cc1ccc(C(=O)NC2(c3nc(C)no3)CCCCC2)cc1
4. CCc1nc2cc(-c3noc(-c4cccc(C#N)c4)n3)ccc2o1
5. O=C(NCCCN1CCOCC1)c1ccc(-c2c(-c3ccc(F)cc3)ncn2C2CCCC2)o1

OUT:
606
570
886
1070
590

IN: Which measured RP-LC retention time value corresponds to CC1CCCCN1Cc1nc(Cn2ccn3nc(-c4ccccc4)cc3c2=O)no1 (stereo unspecified) ?
OUT: 658
